Biological target: Aldo-keto reductase family 1 member C1 (Homo sapiens)
Sequence (Q04828 whole entry): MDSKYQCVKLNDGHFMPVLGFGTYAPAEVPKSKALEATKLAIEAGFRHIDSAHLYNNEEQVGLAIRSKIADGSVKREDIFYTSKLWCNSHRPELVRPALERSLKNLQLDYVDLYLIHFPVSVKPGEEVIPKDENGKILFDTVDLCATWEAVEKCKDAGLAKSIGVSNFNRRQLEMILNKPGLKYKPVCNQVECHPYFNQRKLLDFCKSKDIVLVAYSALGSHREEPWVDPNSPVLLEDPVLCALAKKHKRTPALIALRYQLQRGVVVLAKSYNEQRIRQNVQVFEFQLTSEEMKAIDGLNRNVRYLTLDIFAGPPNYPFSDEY
Assay: Inhibition of AKR1C1 (unknown origin)
pIC50: −log10 of the molar value.
METRIC: pIC50

[[record]]
compound_structure_string = "Cc1cccc(Nc2ccccc2C(=O)O)c1C"
tgt = "Aldo-keto reductase family 1 member C1 (Homo sapiens)"
metric = "pIC50"
assay_value = 5.41


* * *

Target: Aldo-keto reductase family 1 member C4 (Homo sapiens, UniProt P17516)
Sequence (P17516 whole entry): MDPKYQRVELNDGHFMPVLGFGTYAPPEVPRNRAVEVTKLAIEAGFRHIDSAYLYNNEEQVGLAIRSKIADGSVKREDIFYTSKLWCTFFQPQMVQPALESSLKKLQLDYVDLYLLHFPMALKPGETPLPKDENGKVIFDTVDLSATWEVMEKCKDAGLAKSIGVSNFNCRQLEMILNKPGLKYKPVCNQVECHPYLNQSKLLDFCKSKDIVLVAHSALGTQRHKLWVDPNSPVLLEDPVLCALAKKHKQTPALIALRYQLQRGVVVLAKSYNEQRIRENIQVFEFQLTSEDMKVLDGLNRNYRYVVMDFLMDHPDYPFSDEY
Test: Inhibition of AKR1C4 (unknown origin)
pIC50: −log10 of the molar value.
METRIC: pIC50

[[record]]
compound_structure_string = "Cc1cccc(Nc2ccccc2C(=O)O)c1C"
assay_value = "< 4.00"


* * *

Target: Aldo-keto reductase family 1 member C3 (Homo sapiens, UniProt P42330)
Sequence (P42330 whole entry): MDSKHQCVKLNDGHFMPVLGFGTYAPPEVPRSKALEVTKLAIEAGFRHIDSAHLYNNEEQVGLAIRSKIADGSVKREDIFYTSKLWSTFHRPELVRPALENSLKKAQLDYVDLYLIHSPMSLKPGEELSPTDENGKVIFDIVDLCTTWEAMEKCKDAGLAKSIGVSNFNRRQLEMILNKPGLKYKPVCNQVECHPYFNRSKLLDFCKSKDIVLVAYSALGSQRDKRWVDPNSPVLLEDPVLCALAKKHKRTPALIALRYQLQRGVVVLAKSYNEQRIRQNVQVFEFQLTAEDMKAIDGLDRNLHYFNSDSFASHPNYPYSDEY
Experiment: Inhibition of recombinant AKR1C3 (unknown origin) overexpressed in human HCT116 cells assessed as inhibition of aerobic reduction of dinitrobenzamide PR-104A to its hydroxylamine metabolite by LC-MS/MS assay
Format: cell-based, HCT-116
METRIC: IC50 (nM)

[[record]]
compound = "CC1CCCN(S(=O)(=O)c2ccc(N3CCCC3=O)cc2)C1 (configuration not stated)"
assay_value = 15

[[record]]
compound = "C[C@H]1CCC[C@H](C)N1S(=O)(=O)c1ccc(N2CCCC2=O)cc1"
assay_value = 22


* * *

Target: Prostaglandin G/H synthase 2 (Homo sapiens, UniProt P35354)
Sequence (P35354 whole entry): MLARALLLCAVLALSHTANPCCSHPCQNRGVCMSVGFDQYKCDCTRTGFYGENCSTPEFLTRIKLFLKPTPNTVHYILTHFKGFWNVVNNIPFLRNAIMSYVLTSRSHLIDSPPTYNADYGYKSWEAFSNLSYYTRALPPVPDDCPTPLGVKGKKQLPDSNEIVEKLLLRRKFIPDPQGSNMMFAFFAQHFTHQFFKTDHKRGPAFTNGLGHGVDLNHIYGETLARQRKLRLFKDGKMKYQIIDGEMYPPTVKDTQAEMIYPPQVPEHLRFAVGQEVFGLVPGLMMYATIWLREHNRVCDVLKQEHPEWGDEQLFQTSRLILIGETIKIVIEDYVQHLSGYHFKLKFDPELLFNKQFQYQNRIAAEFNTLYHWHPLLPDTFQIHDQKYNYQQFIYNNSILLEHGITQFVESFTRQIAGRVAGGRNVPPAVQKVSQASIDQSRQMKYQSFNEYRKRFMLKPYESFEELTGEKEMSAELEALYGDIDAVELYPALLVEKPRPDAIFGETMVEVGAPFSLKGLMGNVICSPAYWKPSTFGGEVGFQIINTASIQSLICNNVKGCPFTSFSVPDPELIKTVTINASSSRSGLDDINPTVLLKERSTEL
Test: Inhibition of COX2 (unknown origin)
METRIC: IC50 (nM)

[[record]]
compound_structure_string = "Cc1cccc(Nc2ccccc2C(=O)O)c1C"
metric = "IC50"
assay_value = 2900

